# Assay target: T1, SARS spike S1 subunit (severe acute respiratory syndrome …, UniProt P59594 14-667)
# T1 construct: domain: S1 subunit
# Procedure summary: ELISA

- Binder: "FB 9D (antibody, V domains shown) VH: QVQLVESGAEVKKPGESLKISCQGSGYRFNSYWIAWVRQMPGKGLEWMGSIFPTDSDVRYNPSFQGQVTISADKSISFAYLQWSSLKASDTAIYYCARHWASMVRGVIRASHYYGMDVWGQGTTVTVSS VL: QPVLTQPPSASGSPGQSVTISCSGASSDIGKYNYVSWYQQLPGKAPKLLIYEVTKRPSGVPDRFSGSKSGNTASLTVSGLQADDEADYYCSSYAFGGSDTRVFGGGTKLTVL"
  binding result: "no binding"
- Binder: "FI 1C (antibody, V domains shown) VH: EVQLVESGGGLVKPGGSLRLSCAASGFTFSDYYMSWIRQAPGKGLEWVSYISSSGSTIYYADSVKGRFTISRDNAKNSLYLQMNSLRAEDTAVYYCARRSNRFLIAFDIWGQGTMVTVSS VL: QSALTQPASVSGSPGQTITISCTGTSSDVGGYNYVSWYQQHPGKAPKLMIYEVSNRPSGVSNRFSGSKSGNTASLTISGLQAEDEADYYCSSYTSSSTLVVFGGGTKLTVP"
  binding result: "no binding"
- Binder: "FM 1A (antibody, V domains shown) VH: EVQLLESGGGVVQPGRSLRLSCAASGFTFSSYGMHWVRQAPGKGLEWVAVIWYDGSNKYYADSVKGRFTISRDNSKNTLYLQMNSLRAEDTAVYYCAREGAVGATRGFDYWGQGTLVTVSS VL: SYELTQPPSVSVAPGQTARITCGGNNIGSKSVHWYQQKPGQAPVLVVYDDSDRPSGIPERFSGSNSGNTATLTISRVEAGDEADYYCQVWDSSSDQGVFGGGTKLTVL"
  binding result: "no binding"
- Binder: "FB 1E (antibody, V domains shown) VH: EVQLVESGAEVKKPGESLKISCQGSGYRFNSYWIAWVRQMPGKGLEWMGSIFPTDSDIRYNPSFQGQVTISADKSISIAYLQWSSLKASDTAIYYCARHWASMVRGVIRASHYYGMDVWGQGTTVTVSS VL: QSVLTQPPSASGSPGQSVTISCSGASSDIGDYNYVSWYQQLPGKAPKLLIYEVTKRPSGVPDRFSGSKSGNTASLTVSGLQADDEADYYCSSYAFGGSDIRVFGGGTKLAVL"
  binding result: "no binding"
- Binder: "FJ 4E (antibody, V domains shown) VH: QVQLVESGPGLVKPSETLSLTCSVSGGSISSGTYYWSWIRQQPGKGLEWIGYIYNTGRPYYNPFLKSRITISVDSSKNQFSLKLTSVTAADTAVYYCARDEYDSSDSGIQGHWFDPWGQGTLVTVSS VL: AIRMTQSPSSLSASVGDRVTITCRTSQNINSFLNWYQQKPGKGPNLLIYGAFTLQSGVPSRFSGSGSGTDFTLTISSLQPEDFATYFCQQSYSTPWTFGQGTKVEIK"
  binding result: "binds"
